MC3R IC50: recorded values
Biological target: human recombinant MC3R (CHO-K1/Gα15 stable cell line, GenScript) (human, UniProt P41968 1-323)
Sequence (P41968 whole entry): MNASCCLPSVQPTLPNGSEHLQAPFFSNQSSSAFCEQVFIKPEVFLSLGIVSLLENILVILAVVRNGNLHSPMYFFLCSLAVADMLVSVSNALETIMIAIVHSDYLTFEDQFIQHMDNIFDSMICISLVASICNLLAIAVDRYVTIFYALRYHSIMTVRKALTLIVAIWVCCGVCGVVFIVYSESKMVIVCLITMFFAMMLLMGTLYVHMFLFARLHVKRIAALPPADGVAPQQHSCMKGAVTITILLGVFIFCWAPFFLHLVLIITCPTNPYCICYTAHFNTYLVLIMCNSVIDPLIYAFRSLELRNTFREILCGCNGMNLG
Assay: cell-based or functional assay
Positions of bridges follow the written chain, without caps; N, C: chain ends. Non-standard residues stand in square brackets, D forms with d. Primed or numbered codes have the meaning given here. *: point of attachment. Lys(N3) = [N-]=[N+]=NCCCC[C@H](N)C(=O)O; NMeH = CN[C@@H](Cc1c[nH]cn1)C(=O)O; NMeR = CN[C@@H](CCCNC(=N)N)C(=O)O; dNMeF = CN[C@H](Cc1ccccc1)C(=O)O; PEG8′ = polyethylene glycol-8; Nle = CCCC[C@H](N)C(=O)O; Octanoyl = CCCCCCCC(=O)*; Pra = C#CC[C@H](N)C(=O)O
Attribute Measured: MC3R IC50 (nM)

| Binder | Unit Tag | Limit Operator | Result |
| --- | --- | --- | --- |
| Ac-[Nle][Lys(N3)]H[dF]RW[Pra]N-NH2 (triazole 2-7; not fully specified; printed as Ac-Nle-[Lys(N3)-His-DPhe-Arg-Trp-Pra]-Asn-NH2) [KR-056] | nM | = | 66.5 |
| {CH2CO}-EHFRWC-NH2 (thioether N-6; SMILES N=C(N)NCCC[C@@H]1NC(=O)[C@H](Cc2ccccc2)NC(=O)[C@H](Cc2c[nH]cn2)NC(=O)[C@H](CCC(=O)O)NC(=O)CSC[C@@H](C(N)=O)NC(=O)[C@H](Cc2c[nH]c3ccccc23)NC1=O) [KR-011] | nM | > | 50000 |
| Ac-SYSMEH[dNMeF]RWGKPV-NH2 [KR-025] | nM | > | 50000 |
| {Octanoyl-PEG8′}-GGSYSMEHFRWGKPV-NH2 [KR-017] | nM | = | 310 |
| Ac-[Nle][Lys(N3)][NMeH][dF][NMeR]W[Pra]-NH2 (triazole 2-7; not fully specified) [KR-052] | nM | > | 50000 |
